Recorded TOTAL BILIRUBIN values for a group of compounds are listed next.
# Organism: Rattus norvegicus
# protocol-details: DrugMatrix - Regimen: Daily Repeat
# Type: toxicity, organism-based, Sprague-Dawley
# Set-up: regimen Daily Repeat, gender Male, age 6-8 weeks
# applied-conditions: in vivo, po, 0 mg/kg, 72 h, tissue Plasma, route oral GAVAGE, dose level Control, time 3 day, […]
parameter: TOTAL BILIRUBIN (mg/dL)

- compound: "CCn1cc(C(=O)O)c(=O)c2cc(F)c(N3CCNCC3)nc21"
  parameter: "TOTAL BILIRUBIN"
  meas-value: 0.2
- compound: "CC(=O)Nc1nnc(S(N)(=O)=O)s1 [ACETAZOLAMIDE]"
  parameter: "TOTAL BILIRUBIN"
  meas-value: 0.18
- compound: "COc1ncnc(NS(=O)(=O)c2ccc(N)cc2)c1OC"
  parameter: "TOTAL BILIRUBIN"
  meas-value: 0.18
- compound: "CC[C@H](C)C(=O)O[C@H]1C[C@H](O)C=C2C=C[C@H](C)[C@H](CC[C@@H](O)C[C@@H](O)CC(=O)O)[C@H]21"
  parameter: "TOTAL BILIRUBIN"
  meas-value: 0.17
- compound: "OCCN1CCN(CCCN2c3ccccc3Sc3ccc(C(F)(F)F)cc32)CC1"
  parameter: "TOTAL BILIRUBIN"
  meas-value: 0.2
- compound: "CS(=O)(=O)OCCCCOS(C)(=O)=O"
  parameter: "TOTAL BILIRUBIN"
  meas-value: 0.2
- compound: "NC[C@@H]1O[C@H](O[C@H]2[C@@H](O)[C@H](O[C@@H]3[C@@H](O)[C@H](N)C[C@H](N)[C@H]3O[C@H]3O[C@H](CN)[C@@H](O)[C@H](O)[C@H]3N)O[C@@H]2CO)[C@H](N)[C@@H](O)[C@@H]1O"
  parameter: "TOTAL BILIRUBIN"
  meas-value: 0.2
- compound: "C#C[C@]1(O)CC[C@H]2[C@@H]3CCc4cc(O)ccc4[C@H]3CC[C@@]21C"
  parameter: "TOTAL BILIRUBIN"
  meas-value: 0.2
- compound: "CN(CCOc1ccc(CC2SC(=O)NC2=O)cc1)c1ccccn1 (configuration not stated)"
  parameter: "TOTAL BILIRUBIN"
  meas-value: 0.17
- compound: "CC(CCc1ccc(O)cc1)NCCc1ccc(O)c(O)c1 (configuration not stated)"
  parameter: "TOTAL BILIRUBIN"
  meas-value: 0.43
- compound: "CC(C)Cc1ccc(CC(=O)O)cc1"
  parameter: "TOTAL BILIRUBIN"
  meas-value: 0.2
- compound: "CC[C@H](C)C(=O)O[C@H]1C[C@@H](C)C=C2C=C[C@H](C)[C@H](CC[C@@H]3C[C@@H](O)CC(=O)O3)[C@H]21"
  parameter: "TOTAL BILIRUBIN"
  meas-value: 0.2

* * *

# Species on record: Rattus norvegicus
# protocol-details: DrugMatrix - Regimen: Daily Repeat
# Type: toxicity, organism-based, Sprague-Dawley
# Design: regimen Daily Repeat, gender Male, age 6-8 weeks
# applied-conditions: in vivo, po, 0 mg/kg, 72 h, tissue Blood, route oral GAVAGE, dose level Control, time 3 day, vehicle .5 % CMC
Form field: HEMATOCRIT (one value per entry).

- molecule: "C=C(CC)C(=O)c1ccc(OCC(=O)O)c(Cl)c1Cl [ETHACRYNIC ACID]"
  HEMATOCRIT / %: 36.94
- molecule: "Nc1cccc(Cl)c1 [3-CHLOROANILINE]"
  HEMATOCRIT / %: 41.88
- molecule: "CC(C(=O)O)c1ccc(-c2ccccc2)c(F)c1 (stereo not given) [FLURBIPROFEN]"
  HEMATOCRIT / %: 36.52
- molecule: "CC(C)(Sc1cc(C(C)(C)C)c(O)c(C(C)(C)C)c1)Sc1cc(C(C)(C)C)c(O)c(C(C)(C)C)c1 [PROBUCOL]"
  HEMATOCRIT / %: 36.52
- molecule: "Cc1cnc(C(=O)NCCc2ccc(S(=O)(=O)NC(=O)NC3CCCCC3)cc2)cn1 [GLIPIZIDE]"
  HEMATOCRIT / %: 35.45

* * *

# Organism: Rattus norvegicus
# protocol-details: DrugMatrix - Regimen: Daily Repeat
# Type: toxicity, organism-based, Sprague-Dawley
# Parameters: regimen Daily Repeat, gender Male, age 6-8 weeks
# applied-conditions: in vivo, po, 100 mg/kg, 72 h, tissue Plasma, route oral GAVAGE, dose level Low, time 3 day, vehicle .5 % CMC
parameter: BLOOD UREA NITROGEN (mg/dL)

- molecule: "CC=Cc1ccc(O)c(OC)c1"
  unit-spec: "mg/dL"
  meas-value: 17.67
- molecule: "Nc1nc2c(c(=O)[nH]1)N(C=O)C(CNc1ccc(C(=O)N[C@@H](CCC(=O)O)C(=O)O)cc1)CN2 (some centres undefined)"
  unit-spec: "mg/dL"
  meas-value: 16.33
- molecule: "CC[C@]1(O)CC[C@H]2[C@@H]3CCC4=CCCC[C@@H]4[C@H]3CC[C@@]21C"
  unit-spec: "mg/dL"
  meas-value: 10.33
- molecule: "C#C[C@]1(O)CC[C@H]2[C@@H]3CCC4=Cc5oncc5C[C@]4(C)[C@H]3CC[C@@]21C"
  unit-spec: "mg/dL"
  meas-value: 14.67

* * *

# Organism: Rattus norvegicus
# protocol-details: DrugMatrix - Regimen: Daily Repeat
# Assay type: toxicity, organism-based, Sprague-Dawley
# Parameters: regimen Daily Repeat, gender Male, age 6-8 weeks
# applied-conditions: in vivo, po, 100 mg/kg, 120 h, tissue Blood, route oral GAVAGE, dose level Low, time 5 day, vehicle .5 % CMC
parameter: HEMOGLOBIN (G/DL)

- compound: "C#C[C@]1(O)CC[C@H]2[C@@H]3CCC4=Cc5oncc5C[C@]4(C)[C@H]3CC[C@@]21C"
  meas-value: 13.33
- compound: "CC=Cc1ccc(O)c(OC)c1"
  meas-value: 13.27
- compound: "Nc1nc2c(c(=O)[nH]1)N(C=O)C(CNc1ccc(C(=O)N[C@@H](CCC(=O)O)C(=O)O)cc1)CN2 (some centres undefined)"
  meas-value: 13.53
- compound: "CC[C@]1(O)CC[C@H]2[C@@H]3CCC4=CCCC[C@@H]4[C@H]3CC[C@@]21C"
  meas-value: 14.17

* * *

# Species: Rattus norvegicus
# protocol-details: DrugMatrix - Regimen: Daily Repeat
# Format: toxicity, organism-based, Sprague-Dawley
# Parameters: regimen Daily Repeat, gender Male, age 6-8 weeks
# applied-conditions: in vivo, po, 0 mg/kg, 72 h, tissue Plasma, route oral GAVAGE, dose level Control, time 3 day, vehicle 100 % WATER

- compound: "CN1C2CCCC1CC(NC(=O)c1nn(C)c3ccccc13)C2 (centres undefined) [GRANISETRON]"
  CHLORIDE (MEQ/L): 99.67
- compound: "CCCCCCCCCCCCCCCC[n+]1ccccc1.[Br-]"
  CHLORIDE (MEQ/L): 102.5
- compound: "Nc1ccc(S(=O)(=O)Nc2ncccn2)cc1 [SULFADIAZINE]"
  CHLORIDE (MEQ/L): 101.67
- compound: "CC[C@H]1OC(=O)[C@H](C)[C@@H](O[C@H]2C[C@@](C)(OC)[C@@H](O)[C@H](C)O2)[C@H](C)[C@@H](O[C@@H]2O[C@H](C)C[C@H](N(C)C)[C@H]2O)[C@](C)(OC)C[C@@H](C)C(=O)[C@H](C)[C@@H](O)[C@]1(C)O [CLARITHROMYCIN]"
  CHLORIDE (MEQ/L): 98.33
- compound: "CNS(=O)(=O)Cc1ccc2[nH]cc(CCN(C)C)c2c1"
  CHLORIDE (MEQ/L): 103.83
- compound: "Nc1ccc(S(=O)(=O)Nc2nccs2)cc1 [SULFATHIAZOLE]"
  CHLORIDE (MEQ/L): 99.67
- compound: "CC(C)(C)NC[C@H](O)COc1nsnc1N1CCOCC1 [TIMOLOL]"
  CHLORIDE (MEQ/L): 99.67
- compound: "CCOC(N)=O"
  CHLORIDE (MEQ/L): 101.17
- compound: "CCCc1nn(C)c2c(=O)[nH]c(-c3cc(S(=O)(=O)N4CCN(C)CC4)ccc3OCC)nc12"
  CHLORIDE (MEQ/L): 100.83

* * *

# Species: Rattus norvegicus
# protocol-details: DrugMatrix - Regimen: Daily Repeat
# Type: toxicity, organism-based, Sprague-Dawley
# Set-up: regimen Daily Repeat, gender Male, age 6-8 weeks
# applied-conditions: in vivo, po, 0 mg/kg, 120 h, tissue Plasma, route oral GAVAGE, dose level Control, time 5 day, vehicle 100 % SALINE
LACTATE DEHYDROGENASE reference

- compound: "Oc1ccccc1O [CATECHOL]"
  unit-spec: "u/L"
  LACTATE DEHYDROGENASE: 325.5
- compound: "CCCc1nn(C)c2c(=O)[nH]c(-c3cc(S(=O)(=O)N4CCN(C)CC4)ccc3OCC)nc12"
  unit-spec: "u/L"
  LACTATE DEHYDROGENASE: 133.67
- compound: "Cc1cc(CC(=O)O)n(C)c1C(=O)c1ccc(Cl)cc1 [ZOMEPIRAC]"
  unit-spec: "u/L"
  LACTATE DEHYDROGENASE: 325.5
- compound: "CC(=O)OCC(CCn1cnc2cnc(N)nc21)COC(C)=O [FAMCICLOVIR]"
  unit-spec: "u/L"
  LACTATE DEHYDROGENASE: 133.67
